target: esterase; assay: Esterase inhibiting activity; conditions: rat liver microsome esterase, methyl butyrate substrate, pH 8.0, 37° C., 60 minutes; read-out: IC50 for esterases
pIC50: −log10 of the molar value.
# binarize pIC50: threshold 6 inclusive, high side yes (1), low side no (0)

Cc1ccc(S(=O)(=O)OCC(=O)CCc2ccccc2)cc1 : no (0)
CCCCCCCCCCCC(=O)COS(=O)(=O)c1ccc(O)cc1 : yes (1)
CCCCCC(=O)COS(=O)(=O)c1ccc(C)cc1 : no (0)
CCCCC(CC)C(=O)COS(=O)(=O)c1ccccc1C (stereo not drawn) : yes (1)
O=C(COS(=O)(=O)c1ccccc1)C1CCCCC1 : no (0)
CCC(C)CC(=O)COS(=O)(=O)c1c(C)cc(C)cc1C (stereo not drawn) : yes (1)
CCCCCCCCCC(=O)COS(=O)(=O)c1ccc(OC)cc1 : yes (1)
CCCCCCCCCCC(=O)COS(=O)(=O)c1c(C)cc(C)cc1C : yes (1)
CCCCCCCC(=O)COS(=O)(=O)c1ccc(OC)cc1 : yes (1)
CCCCCC(=O)COS(=O)(=O)c1ccc(Cl)cc1 : no (0)
CCOc1ccc(S(=O)(=O)OCC(=O)CCC(C)CC)cc1 (stereo not drawn) : no (0)

====

Listed compounds paired with reported LD50
assay: Acute toxicity; conditions: rat, in vivo, po
quantity: LD50

CCCC(=O)COS(=O)(=O)c1cc(C)ccc1C [Compound 111] : > 2000 mg/kg
CCCC(=O)COS(=O)(=O)c1ccc(NC(C)=O)cc1 [Compound 103] : > 3000 mg/kg
CCOc1ccc(S(=O)(=O)OCC(=O)C(C)CC)cc1 (stereo not shown) [Compound 49] : > 2000 mg/kg
CCOc1ccc(S(=O)(=O)OCC(=O)CC(CC)CC)cc1 [Compound 137] : > 4000 mg/kg
CCCCCCC(=O)COS(=O)(=O)c1c(C)cc(C)c(C)c1C [Compound 97] : > 3000 mg/kg
CCCC(=O)COS(=O)(=O)c1c(C)c(C)cc(C)c1C [Compound 89] : > 3000 mg/kg
CCCCC(=O)COS(=O)(=O)c1c(C)cc(C)cc1C [Compound 74] : > 3000 mg/kg
CCC(=O)COS(=O)(=O)c1c(C)cc(C)cc1C [Compound 72] : > 3000 mg/kg
CCC(C)CCC(=O)COS(=O)(=O)c1c(C)cc(C)cc1C (stereo not shown) [Compound 159] : > 4000 mg/kg
CCCC(=O)COS(=O)(=O)c1cccc(C(=O)O)c1 [Compound 102] : > 3000 mg/kg
CCCCC(CCCC)C(=O)COS(=O)(=O)c1ccc(C)cc1 [Compound 129] : > 3000 mg/kg
C=CCCCCCCCCC(=O)COS(=O)(=O)c1c(C)cc(C)c(C)c1C [Compound 101] : > 4000 mg/kg
CCCC(C)CC(=O)COS(=O)(=O)c1ccc(OCC)cc1 (stereo not shown) [Compound 142] : > 4000 mg/kg
Cc1cc(C)c(S(=O)(=O)OCC(=O)CC(C)(C)C)c(C)c1 [Compound 82] : > 3000 mg/kg
CCCCOc1ccc(S(=O)(=O)OCC(=O)CCCC)cc1 [Compound 54] : > 2000 mg/kg
CCCC(CC)C(=O)COS(=O)(=O)c1ccc(C)cc1 (stereo not shown) [Compound 123] : > 3000 mg/kg
CCCC(=O)COS(=O)(=O)c1ccc(C)c(Cl)c1 [Compound 108] : > 1500 mg/kg
CCCCC(CC)C(=O)COS(=O)(=O)c1c(C)cc(C)cc1C (stereo not shown) [Compound 84] : > 4000 mg/kg
CCCCCCCCCCC(=O)COS(=O)(=O)c1ccc(Cl)cc1 [Compound 69] : > 3000 mg/kg
CCCCCC(C)C(=O)COS(=O)(=O)c1c(C)cc(C)cc1C (stereo not shown) [Compound 162] : > 4000 mg/kg
CCCC(CCC)C(=O)COS(=O)(=O)c1ccc(OCC)cc1 [Compound 135] : > 4500 mg/kg
Cc1ccccc1S(=O)(=O)OCC(=O)CCCCCCC(C)C [Compound 33] : > 3000 mg/kg
Cc1ccc(S(=O)(=O)OCC(=O)CCCCCCC(C)C)cc1 [Compound 27] : > 3000 mg/kg
CCCCCCCCCCC(=O)COS(=O)(=O)c1ccc(C)cc1 [Compound 23] : > 3000 mg/kg
CCCC(=O)COS(=O)(=O)c1ccc2ccccc2c1 [Compound 5] : > 2500 mg/kg
CCCCCCCC(=O)COS(=O)(=O)c1ccc(OC)cc1 [Compound 37] : > 3000 mg/kg
CCCCCCC(=O)COS(=O)(=O)c1ccc(C)cc1 [Compound 19] : > 3000 mg/kg
CC(C)(C)CC(=O)COS(=O)(=O)c1ccccc1 [Compound 11] : > 3000 mg/kg
CCCCC(=O)COS(=O)(=O)c1ccc(Cl)cc1 [Compound 65] : > 1000 mg/kg
CCOc1ccc(S(=O)(=O)OCC(=O)CC(C)CC)cc1 (stereo not shown) [Compound 136] : > 4500 mg/kg
Cc1cc(C)c(S(=O)(=O)OCC(=O)CCCC(C)C)c(C)c1 [Compound 161] : > 3000 mg/kg
CCC(CC)CCC(=O)COS(=O)(=O)c1c(C)cc(C)cc1C [Compound 160] : > 4000 mg/kg
CCCCCCC(=O)COS(=O)(=O)c1ccc(Cl)cc1 [Compound 67] : > 2000 mg/kg
CCCC(=O)COS(=O)(=O)c1ccc(Cl)cc1O [Compound 109] : > 2000 mg/kg
C=CCCC(=O)COS(=O)(=O)c1ccccc1 [Compound 14] : > 2000 mg/kg
CCC(CC)C(=O)COS(=O)(=O)c1ccc(C)cc1 [Compound 121] : > 3000 mg/kg
CCCCCCCC(=O)COS(=O)(=O)c1ccc(C)cc1 [Compound 20] : > 3000 mg/kg
Cc1cc(C)c(S(=O)(=O)OCC(=O)CC(C)C)c(C)c1 [Compound 149] : > 3000 mg/kg
CCCCCC(=O)COS(=O)(=O)c1ccccc1 [Compound 8] : > 2000 mg/kg
C=CCCCCCCCCC(=O)COS(=O)(=O)c1c(C)cc(C)cc1C [Compound 88] : > 4000 mg/kg
